test system: WT Max(13-93) synthetic (M65Nle); experiment: PBM 8-mer E-score (E-score (rank enrichment, -0.5 to 0.5)); higher = stronger preferential binding
In all, about 33,000 sequences were measured (“E-score (rank enrichment, -0.5 to 0.5)”: median about -0.0075, highest 2% from about 0.23 on). The sample holds the highest values, similar sequences and a random draw of the others, so the mix is not that of the screen.
Would you please tag the item YES when its PBM 8-mer E-score is 0.1 or above, and NO when it is below?

Consider the following illustrative entries.
INSERT INTO results (seq_string, cat) VALUES
  ('CCAACGTC', 'NO'),
  ('AGTTATAA', 'YES'),
  ('ACCCAGCT', 'NO'),
  ('ACCTTTTA', 'NO');

Prompt: Entry `GATTATAA` : is its PBM 8-mer E-score no less than 0.1?
Response: YES

Prompt: Entry `AATAATAC` : is its PBM 8-mer E-score no less than 0.1?
Response: YES

---

tested on: WT Max(13-93) synthetic (M65Nle); test: PBM 8-mer E-score (E-score (rank enrichment, -0.5 to 0.5)); higher = stronger preferential binding
The full ranking holds about 33,000 sequences; the median of “E-score (rank enrichment, -0.5 to 0.5)” is about -0.0075, and the highest 2% start at about 0.23. The full list was thinned out, with the highest values kept by preference.
PBM 8-mer E-score values by entry
Give the value as a plain number.

See these solved cases before continuing.
INSERT INTO assay_data (seq_string, endpoint_name, reported_result) VALUES
  ('GCGGGCCA', 'PBM 8-mer E-score', -0.176),
  ('ATTACCCA', 'PBM 8-mer E-score', 0.146),
  ('AGAATAAT', 'PBM 8-mer E-score', 0.177),
  ('ATTGTCTC', 'PBM 8-mer E-score', -0.142),
  ('TGAATAAA', 'PBM 8-mer E-score', 0.305);

Prompt: Report PBM 8-mer E-score under test system WT Max(13-93) synthetic (M65Nle) for `TACATGTA` .
Response: 0.308

Prompt: Report PBM 8-mer E-score under test system WT Max(13-93) synthetic (M65Nle) for `ATCAATTC` .
Response: 0.0046

Prompt: Report PBM 8-mer E-score under test system WT Max(13-93) synthetic (M65Nle) for `GTCATGTA` .
Response: 0.0154

---

test system: WT Max(13-93) synthetic (M65Nle); experiment: PBM 8-mer E-score (E-score (rank enrichment, -0.5 to 0.5)); higher = stronger preferential binding
Whole data set: some 33,000 sequences, median “E-score (rank enrichment, -0.5 to 0.5)” near -0.0075, cut for the highest 2% near 0.23. The sample holds the highest values, similar sequences and a random draw of the others, so the mix is not that of the screen.
Would you please tag the item Satisfied when its PBM 8-mer E-score is 0.2 or above, and Not satisfied when it is below?

Consider the following illustrative entries.
INSERT INTO assay_data (seq_string, subject_of_test, cat) VALUES
  ('CAAATTAC', 'WT Max(13-93) synthetic (M65Nle)', 'Not satisfied'),
  ('CTTTTCTA', 'WT Max(13-93) synthetic (M65Nle)', 'Not satisfied'),
  ('CTTTTGTA', 'WT Max(13-93) synthetic (M65Nle)', 'Not satisfied'),
  ('CTCATGTA', 'WT Max(13-93) synthetic (M65Nle)', 'Not satisfied'),
  ('CTTTTTCA', 'WT Max(13-93) synthetic (M65Nle)', 'Not satisfied');

Prompt: Entry `GCTTTTCA` : is its PBM 8-mer E-score no less than 0.2?
Response: Not satisfied

Prompt: Entry `GGTTTGTA` : is its PBM 8-mer E-score no less than 0.2?
Response: Not satisfied

Prompt: Entry `ATATTTAC` : is its PBM 8-mer E-score no less than 0.2?
Response: Satisfied

Prompt: Entry `AACATGTC` : is its PBM 8-mer E-score no less than 0.2?
Response: Not satisfied

Prompt: Entry `CAAATGTG` : is its PBM 8-mer E-score no less than 0.2?
Response: Not satisfied

Prompt: Entry `GCATTTTA` : is its PBM 8-mer E-score no less than 0.2?
Response: Not satisfied

Prompt: Entry `CCCATGTA` : is its PBM 8-mer E-score no less than 0.2?
Response: Not satisfied

Prompt: Entry `ATATTTAA` : is its PBM 8-mer E-score no less than 0.2?
Response: Satisfied

Prompt: Entry `ACATTTTA` : is its PBM 8-mer E-score no less than 0.2?
Response: Satisfied

Prompt: Entry `CCGGTCCA` : is its PBM 8-mer E-score no less than 0.2?
Response: Not satisfied

Prompt: Entry `CTATTTAA` : is its PBM 8-mer E-score no less than 0.2?
Response: Not satisfied

Prompt: Entry `CCTTTTCA` : is its PBM 8-mer E-score no less than 0.2?
Response: Satisfied

Prompt: Entry `CACATGTA` : is its PBM 8-mer E-score no less than 0.2?
Response: Satisfied

Prompt: Entry `ATCGTCTC` : is its PBM 8-mer E-score no less than 0.2?
Response: Not satisfied

Prompt: Entry `CCTTTTTA` : is its PBM 8-mer E-score no less than 0.2?
Response: Not satisfied

Prompt: Entry `ACTAGTAA` : is its PBM 8-mer E-score no less than 0.2?
Response: Satisfied

Prompt: Entry `GCTTTTAA` : is its PBM 8-mer E-score no less than 0.2?
Response: Not satisfied

---

system: WT Max(13-93) synthetic (M65Nle); assay: PBM 8-mer E-score (E-score (rank enrichment, -0.5 to 0.5)); higher = stronger preferential binding
The full ranking holds about 33,000 sequences; the median of “E-score (rank enrichment, -0.5 to 0.5)” is about -0.0075, and the highest 2% start at about 0.23. The full list was thinned out, with the highest values kept by preference.
PBM 8-mer E-score values by entry
Give the value as a plain number.

INSERT INTO assay_data (seq_string, endpoint_name, reported_result) VALUES
  ('AGTCGTTC', 'PBM 8-mer E-score', -0.143),
  ('CATAACAA', 'PBM 8-mer E-score', 0.251);

Prompt: Dear colleague, please send me the reported PBM 8-mer E-score for `CTAAATAA` when you can.
Response: 0.119

Prompt: Dear colleague, please send me the reported PBM 8-mer E-score for `ATAAAAAG` when you can.
Response: 0.283

Prompt: Dear colleague, please send me the reported PBM 8-mer E-score for `AGTGTTCC` when you can.
Response: -0.151

---

tested on: WT Max(13-93) synthetic (M65Nle); assay: PBM 8-mer E-score (E-score (rank enrichment, -0.5 to 0.5)); higher = stronger preferential binding
In all, about 33,000 sequences were measured (“E-score (rank enrichment, -0.5 to 0.5)”: median about -0.0075, highest 2% from about 0.23 on). For the sample, the highest values were picked, then their nearest neighbours and some sequences at random.
endpoint.name: PBM 8-mer E-score
Give the value as a plain number.

INSERT INTO measurements (seq_string, reported_result) VALUES
  ('ACTCTTAC', 0.0838),
  ('GGATGACA', -0.00576),
  ('AACGTAAC', 0.192),
  ('AACGTAAA', 0.198),
  ('ATATCGGG', 0.19),
  ('CATGTAGA', 0.193),
  ('TACGTAAA', 0.233),
  ('CGGGTCAA', -0.125);

Prompt: Dear colleague, please send me the reported PBM 8-mer E-score for `CTATGACA` when you can.
Response: 0.0275

Prompt: Dear colleague, please send me the reported PBM 8-mer E-score for `AATGGGAA` when you can.
Response: 0.0482

Prompt: Dear colleague, please send me the reported PBM 8-mer E-score for `CAGAGGTA` when you can.
Response: 0.0024

Prompt: Dear colleague, please send me the reported PBM 8-mer E-score for `CACGGTAG` when you can.
Response: -0.0473

Prompt: Dear colleague, please send me the reported PBM 8-mer E-score for `GACACCGC` when you can.
Response: -0.206

Prompt: Dear colleague, please send me the reported PBM 8-mer E-score for `CTGCAGAA` when you can.
Response: -0.039

Prompt: Dear colleague, please send me the reported PBM 8-mer E-score for `AACGTGGT` when you can.
Response: 0.282

Prompt: Dear colleague, please send me the reported PBM 8-mer E-score for `AACGTGGA` when you can.
Response: 0.153

Prompt: Dear colleague, please send me the reported PBM 8-mer E-score for `ATACTGTG` when you can.
Response: 0.012

Prompt: Dear colleague, please send me the reported PBM 8-mer E-score for `AACGTAAT` when you can.
Response: 0.248

Prompt: Dear colleague, please send me the reported PBM 8-mer E-score for `ACAAAACG` when you can.
Response: 0.152

Prompt: Dear colleague, please send me the reported PBM 8-mer E-score for `AACGTGAG` when you can.
Response: 0.132

Prompt: Dear colleague, please send me the reported PBM 8-mer E-score for `AACGTAGT` when you can.
Response: -0.0406

Prompt: Dear colleague, please send me the reported PBM 8-mer E-score for `GTCTGGCA` when you can.
Response: -0.0283
